Target: Caspase-3 (Homo sapiens)
Sequence (whole entry): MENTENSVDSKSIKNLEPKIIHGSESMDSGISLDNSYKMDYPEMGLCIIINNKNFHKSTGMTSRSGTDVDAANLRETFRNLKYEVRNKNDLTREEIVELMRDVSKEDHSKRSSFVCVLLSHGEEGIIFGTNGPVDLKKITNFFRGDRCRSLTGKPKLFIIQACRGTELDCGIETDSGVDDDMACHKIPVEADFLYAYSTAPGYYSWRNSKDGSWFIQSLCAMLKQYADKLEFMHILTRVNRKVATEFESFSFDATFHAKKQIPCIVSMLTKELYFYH
Experiment: Inhibitory activity against Caspase-3
Threshold 70000 M⁻¹ s⁻¹: k3/Ki strictly smaller gives t, otherwise f.

Req: Consider the compound C[C@H](NC(=O)C(=O)NCc1ccccc1)C(=O)N[C@@H](CC(=O)O)C(=O)COc1c(F)c(F)cc(F)c1F . Is its k3/Ki strictly less than 70000 M⁻¹ s⁻¹?
Resp: t

Req: And the next one, C[C@H](NC(=O)C(=O)Nc1ccccc1Oc1ccccc1)C(=O)N[C@@H](CC(=O)O)C(=O)COc1c(F)c(F)cc(F)c1F ?
Resp: t

Req: And the next one, O=C(O)CC(NC(=O)[C@@H]1Cc2cccc3c2N1C(=O)[C@@H](NC(=O)OCc1ccccc1)CC3)C(=O)CF (stereo partly specified) ?
Resp: f

Req: And the next one, C[C@H](NC(=O)C(=O)Nc1ccccc1C(C)(C)C)C(=O)N[C@@H](CC(=O)O)C(=O)COc1c(F)c(F)cc(F)c1F [EMRICASAN] ?
Resp: f

Req: And the next one, C[C@H](NC(=O)C(=O)Nc1ccc2c(c1)CCC2)C(=O)N[C@@H](CC(=O)O)C(=O)COc1c(F)c(F)cc(F)c1F ?
Resp: t

Req: And the next one, C[C@H](NC(=O)C(=O)NC1CCCCC1)C(=O)N[C@@H](CC(=O)O)C(=O)COc1c(F)c(F)cc(F)c1F ?
Resp: t

Req: And the next one, C[C@H](NC(=O)C(=O)Nc1ccccc1C(F)(F)F)C(=O)N[C@@H](CC(=O)O)C(=O)COc1c(F)c(F)cc(F)c1F ?
Resp: f

Req: And the next one, C[C@H](NC(=O)C(=O)Nc1ccccc1)C(=O)N[C@@H](CC(=O)O)C(=O)COc1c(F)c(F)cc(F)c1F ?
Resp: t

Req: And the next one, C[C@H](NC(=O)C(=O)Nc1ccccc1Cc1ccccc1)C(=O)N[C@@H](CC(=O)O)C(=O)COc1c(F)c(F)cc(F)c1F ?
Resp: t

Req: And the next one, C[C@H](NC(=O)C(=O)Nc1ccccc1C(C)(C)C)C(=O)N[C@@H](CC(=O)O)C(=O)COC(=O)c1c(Cl)cccc1Cl ?
Resp: f
